molecular target: Bromodomain-containing protein 4 (Homo sapiens, UniProt O60885); experiment: Binding affinity to N-terminal His6-tagged BRD4 bromodomain 1 (44 to 168 residues) (unknown origin) assessed as change in melting temperature at 20 uM measured after 1 hr by Sypro orange dye based differential scanning fluorimetry
Would you kindly list ΔTm for each of these compounds?
Report as a plain number; the unit °C is understood.

Sample CC(Sc1nc(-c2cccs2)n[nH]1)C(=O)N1CCCc2ccccc21 (centres undefined) ; ΔTm observed: 1.78

Sample CC(C(=O)Nc1ccc2nnc(C3CCC3)n2c1)n1cncn1 (centres undefined) ; ΔTm observed: 1.49

Sample Cc1noc(C)c1CSCC(=O)c1c(C)[nH]c2ccccc12 ; ΔTm observed: 1.36

Sample Cc1nn(C2CCS(=O)(=O)C2)c(C)c1CN(C)C(=O)CC(c1ccccc1)c1ccccc1 (centres undefined) ; ΔTm observed: 1.82

Sample c1cnn(-c2ccc(CNc3ccc4nnc(C5CC5)n4n3)cc2)c1 ; ΔTm observed: 0.76

Sample Cc1nnc2ccc(NCc3ccnc(OC4CCCC4)c3)nn12 ; ΔTm observed: 1.69

Sample CCC(C)C1NC(=O)N(CC(C)c2c(C)noc2C)C1=O (centres undefined) ; ΔTm observed: 2.12

Sample Cc1noc(C)c1COc1ccccc1C(=O)NC(c1ccccc1)c1ccccc1 ; ΔTm observed: 0.93

Sample COCCc1ccccc1NC(=O)NC(c1ccccc1)c1n[nH]c(C)n1 (centres undefined) ; ΔTm observed: 1.26

Sample Cc1nnc2c(NCc3cnn(-c4ccc(Cl)cc4)c3)nccn12 ; ΔTm observed: 1.86

Sample Cc1nnc2ccc(N(C)Cc3ccc([S+](C)[O-])cc3)nn12 (centres undefined) ; ΔTm observed: 1.8

Sample Cc1noc(C)c1NC(=O)N1CCCCC1c1ncc[nH]1 (centres undefined) ; ΔTm observed: 1.76

Sample Cc1nn(C)c(C)c1C1C(CNc2nccn3cnnc23)CC(=O)N1C (centres undefined) ; ΔTm observed: 1.9

Sample O=C(CCc1ncc(-c2ccc(Cl)cc2Cl)o1)NCCc1nnc2ccccn12 ; ΔTm observed: 1.21

Sample Cc1n[nH]c(C)c1CNCc1c(C)nn(Cc2ccccc2)c1C ; ΔTm observed: 1.6

Sample Cc1nnc2ccc(N3CCN(C(=O)c4csc(-c5ccccc5F)n4)CC3)nn12 ; ΔTm observed: 1.72

Sample CCn1c(SC(C(=O)NCc2cccnc2)C(C)C)nnc1-c1cccs1 (centres undefined) ; ΔTm observed: 1.6

Sample Cc1nnc2ccc(NC3CCCc4cc(OC(F)F)ccc43)nn12 (centres undefined) ; ΔTm observed: 1.7

Sample Cc1c(C2OCCC2NCc2cc(-c3cnn(C)c3)no2)cnn1C (centres undefined) ; ΔTm observed: 2.02

Sample COc1ccc(-n2ccc(C(=O)Nc3cc(Cl)c(=O)n(C)c3)n2)cc1 ; ΔTm observed: 1.08

Sample Cc1cc(-c2cc(C(=O)NC3CCC(CO)CC3)c3c(C)noc3n2)c(C)o1 (centres undefined) ; ΔTm observed: 2.82

Sample COCCN(C)c1ccccc1CNc1ccc2nnc(C)n2n1 ; ΔTm observed: 1.1

Sample Cc1nnc2ccc(NCc3ccc(OC4CCCC4)nc3)nn12 ; ΔTm observed: 1.89

Sample Cc1nnc2ccc(NCc3cn(-c4ccccc4)nc3C(C)C)nn12 ; ΔTm observed: 2.66

Sample Cc1cc(C(=O)N(C)C(c2ccccc2)c2ccccn2)c2c(C)nn(C(C)(C)C)c2n1 (centres undefined) ; ΔTm observed: 1.49

Sample COCCCOc1cc(C)ccc1CNc1ccc2nnc(C)n2n1 ; ΔTm observed: 1.56

Sample Cc1noc(C)c1CC(=O)Nc1nc(-c2c(C)[nH]c3ccccc23)cs1 ; ΔTm observed: 1.86

Sample Cc1noc(C)c1CNC(=O)Nc1cccc(-c2ccc(Cl)c(Cl)c2)c1 ; ΔTm observed: 1.56

Sample Cc1nn(CCO)c(C)c1CNC(c1ccccc1)c1nccn1C (centres undefined) ; ΔTm observed: 1.09

* * *

Would you kindly list log10 IC50 for each of these compounds?
target: Bromodomain-containing protein 4 (Homo sapiens, UniProt O60885); assay: Inhibition of BRD4 (unknown origin) measured after 2 hrs by TR-FRET assay
Record value = log10 of IC50 given in µM.

The compound Cc1nnc2ccc(NCc3cn(-c4ccccc4)nc3C(C)C)nn12 , when measured on Bromodomain-containing protein 4 (Homo sapiens, UniProt O60885), yielded log10 IC50 of 1.07

The compound Cc1nn(C)c(C)c1C1C(CNc2nccn3cnnc23)CC(=O)N1C (centres undefined) , when measured on Bromodomain-containing protein 4 (Homo sapiens, UniProt O60885), yielded log10 IC50 of 1.38

The compound c1cnn(-c2ccc(CNc3ccc4nnc(C5CC5)n4n3)cc2)c1 , when measured on Bromodomain-containing protein 4 (Homo sapiens, UniProt O60885), yielded log10 IC50 of 1.80

The compound Cc1n[nH]c(C)c1CNCc1c(C)nn(Cc2ccccc2)c1C , when measured on Bromodomain-containing protein 4 (Homo sapiens, UniProt O60885), yielded log10 IC50 of 1.52

The compound Cc1nn(C2CCS(=O)(=O)C2)c(C)c1CN(C)C(=O)CC(c1ccccc1)c1ccccc1 (centres undefined) , when measured on Bromodomain-containing protein 4 (Homo sapiens, UniProt O60885), yielded log10 IC50 of 2.20

The compound CCn1c(SC(C(=O)NCc2cccnc2)C(C)C)nnc1-c1cccs1 (centres undefined) , when measured on Bromodomain-containing protein 4 (Homo sapiens, UniProt O60885), yielded log10 IC50 of 0.94

The compound COCCN(C)c1ccccc1CNc1ccc2nnc(C)n2n1 , when measured on Bromodomain-containing protein 4 (Homo sapiens, UniProt O60885), yielded log10 IC50 of 2.03

The compound Cc1noc(C)c1CC(=O)Nc1nc(-c2c(C)[nH]c3ccccc23)cs1 , when measured on Bromodomain-containing protein 4 (Homo sapiens, UniProt O60885), yielded log10 IC50 of 1.29

The compound Cc1cc(-c2cc(C(=O)NC3CCC(CO)CC3)c3c(C)noc3n2)c(C)o1 (centres undefined) , when measured on Bromodomain-containing protein 4 (Homo sapiens, UniProt O60885), yielded log10 IC50 of 1.40
